I'd be grateful if you could share measured Ka for these entries.
- Test system: rat small intestine (duodenum, jejunum, ileum)
- measurementProtocol: In situ single-pass intestinal perfusion (SPIP), saponins administrated in MDQ-TS form
- Type: in vivo
- measurementConditions: MDQ-TS form 1.25 mg·mL^−1, duodenum, n = 5

Some solved cases for reference:
compound	observationType	experimentalValue
CC1CCC2(C(=O)OC3OC(CO)C(O)C(O)C3O)CCC3(C)C(=CCC4C5(C)CCC(O)C(C)(C(=O)O)C5CCC43C)C2C1(C)O (stereo not shown) [C2, ilexsaponin A1]	Ka	1.10 ± 0.40 ×10^−2 min^−1
C[C@@H]1O[C@@H](O[C@H]2[C@H](O[C@H]3[C@H](O[C@H]4CC[C@]5(C)[C@H]6CC=C7[C@H]8[C@](C(=O)O)(CC[C@H](C)[C@@]8(C)O)CC[C@@]7(C)[C@]6(C)CC[C@H]5C4(C)C)OC[C@@H](O)[C@@H]3O)O[C@H](CO)[C@@H](O)[C@@H]2O)[C@H](O)[C@H](O)[C@H]1O [C4, ilexsaponin B2]	Ka	1.04 ± 0.31 ×10^−2 min^−1
C[C@@H]1CC[C@]2(C(=O)O)CC[C@]3(C)C(=CC[C@@H]4[C@@]5(C)CC[C@H](O)[C@@](C)(C(=O)O)[C@@H]5CC[C@]43C)[C@@H]2[C@]1(C)O [C1, ilexgenin A]	Ka	1.86 ± 0.73 ×10^−2 min^−1

Query compound follows.
Please fill in: Ka reported for C[C@H]1CC[C@]2(C(=O)O)CC[C@]3(C)C(=CC[C@@H]4[C@@]5(C)CC[C@H](O[C@@H]6OC[C@@H](O)[C@H](O)[C@H]6O[C@@H]6O[C@H](CO)[C@@H](O)[C@H](O)[C@H]6O)C(C)(C)[C@@H]5CC[C@]43C)[C@@H]2[C@]1(C)O [C3, ilexsaponin B1] = 1.16 ± 0.26 ×10^−2 min^−1
